Give measured self-cleavage for each item. Keep answers brief.
B1: OR4K15 (parent)
chain: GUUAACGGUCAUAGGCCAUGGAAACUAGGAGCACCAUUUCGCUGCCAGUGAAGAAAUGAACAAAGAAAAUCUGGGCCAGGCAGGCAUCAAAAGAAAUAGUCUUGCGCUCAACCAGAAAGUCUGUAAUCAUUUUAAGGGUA

Variants of: B1
runDescription: self-cleavage, relative activity (ratio to wild type); higher = more cleavage; in vitro, sequencing; the parent is a self-cleaving ribozyme
The answer should be a number; do not append a unit.

Any idea what its self-cleavage is? The variant is U103C A116G
0.5

Repeat for the following variant: C107U C121U
0.01

Check A27G A67G too.
1.25
